Target: T1, Human BSSL (bile salt-stimulated lipase), native (human, UniProt P19835 21-753)
T1 sequence: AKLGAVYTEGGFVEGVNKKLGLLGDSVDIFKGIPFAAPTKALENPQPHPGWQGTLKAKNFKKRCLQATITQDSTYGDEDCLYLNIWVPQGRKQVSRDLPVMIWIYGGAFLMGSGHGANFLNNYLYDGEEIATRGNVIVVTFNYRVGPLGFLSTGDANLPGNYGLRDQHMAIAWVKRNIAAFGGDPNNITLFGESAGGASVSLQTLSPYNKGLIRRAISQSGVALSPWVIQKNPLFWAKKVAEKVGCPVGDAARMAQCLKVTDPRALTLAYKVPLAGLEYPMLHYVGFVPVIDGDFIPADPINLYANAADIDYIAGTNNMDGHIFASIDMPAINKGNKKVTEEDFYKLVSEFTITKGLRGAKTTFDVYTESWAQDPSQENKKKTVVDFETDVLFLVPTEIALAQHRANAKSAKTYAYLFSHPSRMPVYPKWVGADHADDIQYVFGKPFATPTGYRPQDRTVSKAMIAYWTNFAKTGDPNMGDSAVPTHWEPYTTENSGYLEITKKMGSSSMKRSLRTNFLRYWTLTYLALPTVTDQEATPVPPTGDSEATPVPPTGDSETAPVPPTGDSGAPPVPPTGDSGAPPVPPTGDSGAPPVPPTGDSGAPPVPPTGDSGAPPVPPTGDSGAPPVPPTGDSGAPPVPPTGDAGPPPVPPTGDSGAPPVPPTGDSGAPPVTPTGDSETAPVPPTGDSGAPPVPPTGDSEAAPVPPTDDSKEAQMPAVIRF
Assay: cell-based or functional assay
Readout Kind: BSSL hydrolysis of triglycerides, relative value (no antibody = 100%); 0.19 ug antibody
Please reply with the bare figure in % and do not write the unit itself.

Inquiry: Entry S-SL048-11 hIgG4 S228P (antibody, V domains shown, also called clone 11; mAb11) VH: QVQLVQSGAEVKKPGASVKVSCKASGYTFTSYNMHWVRQAPGQGLEWMGVIYPGDGATSYAQKFKGRVTMTRDTSTSTVYMELSSLRSEDTAVYYCARDYYGSSPLGYWGQGTLVTVSS VL: DIQMTQSPSSLSASVGDRVTITCSASPSISYMNWYQQKPGKAPKLLIYATSSLASGVPSRFSGSGSGTDFTLTISSLQPEDFATYYCHQRSSYPTFGQGTKLEIKR has what BSSL hydrolysis of triglycerides, relative value (no antibody = 100%); 0.19 ug antibody?
Reply text: 109
